Can you tell me Binding activity (absorbance at 492 nm) for the items I'm about to list?
- Target Or System: Influenza virus A/Brisbane/59/2007 (H1N1) (Influenza A virus A/Brisbane/59/2007 (H1N1))
- Test Protocol: ELISA on coated viral particles
Numbers only.

- Binder: "Group 55 representative clone F083-305, Fab-cp3-type antibody (Fab, V domains shown) VH: EVQLVESGAEVKKPGSSVKVSCKASGSIFSNYAISWVRQAPGQGLEWMGGIVPMFGTTRFAQKFQGRVTITADESRSTAYMELNNLISEDTAVYYCARAPLIYNWYFDLWGRGTLVTVSS VL: EIVLTQSPSFVSASVGDRVSITCRASQGISSWLAWYQQKPGKAPRLLIYGASNLQSGVPSRFSGSGSGTDYTLTINSLQPEDFATYYCQQARTFPVTFGQGTKLEIK"
  Binding activity (absorbance at 492 nm): 2.88
- Binder: "Group 37 representative clone F083-311, Fab-cp3-type antibody (Fab, V domains shown) VH: QVQLVQSGSEVKKPGSSVKVSCKASGGIFRTNAISYVRQAPGQGLEWMGGITAIFGTPNYAQKFQGRVTIIADESTSTVYMELGSLTSEDTAVYYCATSGTYYVSYFDSWGQGTLVTVSS VL: DIVMTQSPGTLTLSPGERATLSCRASQSLYSSHLAWYQQKPGQPPRLLIYGASTRAPGTPDRFSGSGSGTDFTLTITALDPEDSAVYYCQQYGSSPITFGQGTRLEIK"
  Binding activity (absorbance at 492 nm): 2.64
- Binder: "Group 62 representative clone F083-349, Fab-cp3-type antibody (Fab, V domains shown) VH: QVQLVQSGAEVRKPGSSVKVSCKASGVIFIKFAISWVRQAPGQGLEWMGGIIPMFGTTNYAQKFQGRVTITADGSTNTVYMELSSLTSEDTAVYYCAKEEGYYYGSGPLDSWGQGTLVTVSS VL: DIVMTQSPDFLSVSLGERVTINCKSSQTVLNRSNNKNYLAWYQKKPGQPPRLLLYWSSTRESGVPDRFSGSGSETDFALTITNLQAEDLAVYFCQQFYDMPVTFGGGTKLEIK"
  Binding activity (absorbance at 492 nm): 2.93
- Binder: "Group 80 representative clone F083-373, Fab-cp3-type antibody (Fab, V domains shown) VH: QVQLVQSGADVKKPGSSVRVSCKASGRTFGNYAISWVRQAPGQGLEWMGGITPIFGAANYAQKFQGRVTISADLSTTMVYMDLSSLRSDDTAFYYCAGHPTYYYGSPMDYWGQGTLVTVSS VL: EIVLTQSPSSLSASVGDRVTITCRASQSIATYLNWYQQKPGKAPNLLIYAASNLQSGVPSRFSGSGSGTDFTLTISSLQPEDFATYVCLQSYSATLTFGGGTKVEIK"
  Binding activity (absorbance at 492 nm): 1.31

Now consider a different binder.
Incoming: Binding activity (absorbance at 492 nm) lookup needed for Group 56 representative clone F083-318, Fab-cp3-type antibody (Fab, V domains shown) VH: EVQLVQSGAEVKKPGSSVKVSCQASGSIFSNYAINWVRQAPGQGLEWMGGIVPIFGTTRFAQKFQGRLTITADEPRSTAYMELNNLISEDTAVYYCARAPLIYNWYYDLWGRGTLVTVSS VL: EIVLTQSPSSLSASVGDRVTITCRASQGISNYLAWYQQKPGKVPKLLIYAASTLQSGVPSRFSGSGSGTDFTLTISSLQPEDVATYYCQKYNSAPHTFGPGTKVDIK , thanks.
Outgoing: 2.85
